Attribution: paper PMC9304066

Tested On: tScCBS (Saccharomyces cerevisiae)
Construct: 6xHis (C)
Sequence (P32582 1-345): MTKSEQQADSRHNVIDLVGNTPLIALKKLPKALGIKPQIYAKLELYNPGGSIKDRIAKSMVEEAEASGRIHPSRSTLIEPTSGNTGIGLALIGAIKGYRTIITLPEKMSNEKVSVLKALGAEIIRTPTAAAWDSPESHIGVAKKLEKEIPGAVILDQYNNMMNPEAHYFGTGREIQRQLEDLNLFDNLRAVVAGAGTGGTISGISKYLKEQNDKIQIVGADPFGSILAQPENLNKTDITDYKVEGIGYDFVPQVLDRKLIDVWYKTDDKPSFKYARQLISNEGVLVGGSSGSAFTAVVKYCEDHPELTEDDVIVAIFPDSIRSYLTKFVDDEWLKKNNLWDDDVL
Protocol Details: CBS H2S production assay (AzMC fluorometric), tScCBS
Condition Notes: tScCBS; AzMC assay, 5 mM Cys + 2 mM Hcy
pIC50: −log10 of the molar value.
Observable: pIC50

* NOCC(=O)O [AOAA, aminooxyacetic acid] | 5.04
